Test Details: qHTS for Inhibitors of human tyrosyl-DNA phosphodiesterase 1 (TDP1): qHTS in cells in presence of CPT; also: nearly all actives have a fitted effect of over 55% in size
Condition Set: chicken DT40 Tdp1-/-;hTDP1 cells + 20 nM CPT, ATP luminescence, 48 h; series mostly up to 46.2 µM
The whole screen tested about 420,000 compounds, of which about 50,000 (12%) were called active. About 26% were inconclusive and are not listed. Calls follow the shape of the dose curve; as a rule, active = well fitted inhibition curve with a large enough effect; inconclusive = small, poorly fitted or top-dose-only effect; inactive = flat fitted curve, though single readings scatter. The entries come from a sample that favours actives as a whole.
Respond with a class label; see yes (1) for active, no (0) for inactive

Please review the following examples before continuing.
Compound | Discrete Label
CC1(C(=O)Nc2cccc3c2CCCC3)CCN1C(=O)C1(c2ccccc2)CC1 (centres undefined) | yes (1)
CC(C)(C)OC(=O)NC(Cc1ccccc1)C(=O)NC(CSC1CCCCO1)C(=O)NN (centres undefined) | no (0)
Cc1ccc(CN2C(=O)SC(Nc3ccccc3)C2=O)cc1 (centres undefined) | no (0)
CC1(C(=O)NS(=O)(=O)c2ccc3ccccc3c2)CCN1C(=O)C1(c2ccc(Cl)cc2)CCC1 (centres undefined) | no (0)
CC1(C(=O)Nc2cccc3c2CCCC3)CCN1C(=O)CCc1ccc(Cl)cc1Cl (centres undefined) | yes (1)

Could you kindly confirm the outcome this assay logged for CC(=O)c1ccc(N2CCN(CC(O)c3ccccc3)CC2)cc1 (centres undefined) ?
no (0)

Could you kindly confirm the outcome this assay logged for C#CCOCCOCCOCCNc1nc(N2CCN(C(=O)[C@H](CCCCN)n3cc(CCC(=O)O)nn3)CC2)nc(N2CCN(C(=O)[C@H](CCCCN)n3cc(CC(C)O)nn3)CC2)n1 (some centres undefined) ?
no (0)

* * *

Test Details: qHTS for Inhibitors of human tyrosyl-DNA phosphodiesterase 1 (TDP1): qHTS in cells in presence of CPT; also: nearly all actives have a fitted effect of over 55% in size; also: potency is read from the fitted curve at half-maximal effect
Condition Set: chicken DT40 Tdp1-/-;hTDP1 cells + 20 nM CPT, ATP luminescence, 48 h; series mostly up to 46.2 µM
Out of some 420,000 compounds screened, about 50,000 (12%) were called active. Not shown: some 26% with an inconclusive outcome. This is one part of a sample in which actives are shown more often than they occur.
Parameter: Potency

Below, 5 molecules whose answers are already recorded.
Molecule | Recorded Result
COc1cccc(CN(C)CC(=O)Nc2sc3c(c2C#N)CCC3)c1 | inactive
Oc1ccc(N=Nc2nccs2)c(O)c1 | 10.3 µM (active)
Cc1ccc(Nc2c3c(nc4ccccc24)CCC3)cc1 | 11.6 µM (active)
N#Cc1cccc(NC(=O)CCC2CCCC2)c1 | inactive
O=C(Nc1c2c(nc3ccccc13)CCCC2)c1ccccc1Br | inactive

For the 6 molecules below, give their Potency values.
1. O=C(NCCc1nnc2ccc(SCC(=O)N3CCOCC3)nn12)c1ccccc1
2. Cc1nc2ccccc2c(C(=O)O)c1-c1ccccn1
3. Oc1ccc2ccccc2c1N=Nc1nccs1
4. O=C(Nc1cc(S(=O)(=O)N2CCOCC2)ccc1OCC(F)(F)F)c1ccc(N2CCCC2=O)cc1
5. CC1=C(C(=O)OC2CCCCC2)C(c2ccccc2F)NC(=O)N1 (centres undefined)
6. COc1ccc(F)c(CN2CCC3(CCC(CNC(=O)c4ccn(C)n4)O3)CC2)c1 (centres undefined)

1. inactive
2. inactive
3. 1.16 µM (active)
4. inactive
5. inactive
6. inactive

* * *

Test Details: qHTS for Inhibitors of human tyrosyl-DNA phosphodiesterase 1 (TDP1): qHTS in cells in presence of CPT; also: nearly all actives have a fitted effect of over 55% in size
Condition Set: chicken DT40 Tdp1-/-;hTDP1 cells + 20 nM CPT, ATP luminescence, 48 h; series mostly up to 46.2 µM
Hit rate of the full screen: of about 420,000 compounds, about 50,000 (12%) were called active. Roughly 26% stayed inconclusive and do not appear here. What follows is part of a selection rich in actives, with near analogues and random picks from the rest.
Parameter: outcome

Below, 4 molecules whose answers are already recorded.
Molecule | Parameter | Recorded Result
COc1ccc(Nc2cc(Cl)ccc2C(=O)O)cn1 | outcome | inactive
COC(=O)C1=C(O)/C(=C/c2ccc(OCC(=O)Nc3ccccc3)cc2)N=C1C | outcome | inactive
CSc1ncccc1C(=O)NCC(c1ccco1)N1CCCCC1 (stereo not given) | outcome | inactive
COc1ccc2oc(C(=O)NCc3ccco3)c(C)c2c1 | outcome | inactive

For the molecule Cc1cc(NC(=O)CSc2nc3ccccc3n2CC(C)C)no1 , what outcome is on record?
inactive
